Target: HPV16 E2 (Human papillomavirus type 16, UniProt P03120 1-365)
Sequence (P03120 whole entry): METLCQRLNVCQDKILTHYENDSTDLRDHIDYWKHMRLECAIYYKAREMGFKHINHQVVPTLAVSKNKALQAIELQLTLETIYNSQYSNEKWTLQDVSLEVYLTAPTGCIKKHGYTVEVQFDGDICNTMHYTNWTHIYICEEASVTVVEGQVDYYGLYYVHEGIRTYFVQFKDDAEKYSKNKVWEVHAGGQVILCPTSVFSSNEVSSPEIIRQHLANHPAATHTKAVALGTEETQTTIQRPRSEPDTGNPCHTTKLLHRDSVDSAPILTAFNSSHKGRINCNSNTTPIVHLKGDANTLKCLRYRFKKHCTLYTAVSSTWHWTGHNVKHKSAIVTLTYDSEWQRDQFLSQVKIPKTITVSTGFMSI
Experiment: fluorescence polarization; 5 mM Mg2+; separate experiment alongside E1; FP: 20 mM Tris-HCl pH 7.0, 10 mM NaCl, 0.1 mg/ml BSA, 5 mM MgCl2, 1 mM DTT, room temperature, 60 min; 50 nM probe, 0-200 nM protein
Settings: protein: recombinant; tags: His (pET28a, Ni-NTA); HA (blots); chain copies: 2; label: 5' Cy3; single strand
MEASURED QUANTITY: Kd (nM)
Numbers only, in nM.

Item: GCGTCTTTACGGGTGCTTAAAAACAAAAACAAAAACAAAA (ssDNA) [Cy3-labeled 40-nt ssDNA (FP probe)] | Kd: 28

The measurements presented in this section are drawn from paper PMC13284460.
